Tested on: COLO 205 colon
Test Summary: NCI tumour cell line growth inhibition, 48 h
This section presents compounds with their documented TGI values.

Compound	TGI
CC(=O)CCC1(C(=O)OCC(C)C)CCCC1=O (centres undefined)	> 100 µM
CCOC(=O)c1cn(C)c2c(OC)c3ccccc3c(OC)c2c1=O	> 100 µM
CN(C)CCNC(=O)Nc1ccc(N(C)c2ccnc(Nc3ccc(CS(C)(=O)=O)cc3)n2)cc1	> 25 µM
O=c1[nH]c(=S)[nH]c(O)c1/C=C1\C=Nc2ccccc21	18.3 µM
O=C1C=CC2(CCC23C=CC(=O)O3)O1 (centres undefined)	> 100 µM
CO[C@H]1C(=O)[C@]2(C)[C@@H](OC)C[C@H]3OC[C@@]3(OC(C)=O)[C@H]2[C@H](OC(=O)c2ccccc2)[C@]2(O)C[C@H](OC(=O)[C@H](O)[C@@H](NC(=O)OC(C)(C)C)c3ccccc3)C(C)=C1C2(C)C	0.0103 µM
N=C(N)n1cc(/C=N/N=C(N)N)cn1	> 100 µM
O=c1c2ccccc2nc(-c2cccc(Cl)c2)n1NC1OC(CO)C(O)C(O)C1O (centres undefined)	> 100 µM

Please find the next compound below.
Short answer please: TGI, COLO 205 colon, entry CS(=O)(=O)OCCN1CCN(C(=O)c2ccc(Cl)c3c(Nc4ccc(S(=O)(=O)N=C(N)N)cc4)c4ccccc4nc23)CC1 > 100 µM

====

This section presents compounds with their documented TGI values.
System: RPMI-8226 leukemia
Test Summary: NCI tumour cell line growth inhibition, 48 h
Provide the reading as a plain figure in µM.

Compound	Measurement Units	TGI
Cc1ccc2ccc3c4ccccc4ccc3c2c1	µM	59.2
COC1=C(OC)C(=O)C(Cc2c(Cl)nc3sccn23)=C(C)C1=O	µM	15.7
Cc1nnc(SCc2nc(C#N)c(C#N)nc2CSc2nnc(C)s2)s1	µM	18
N#CN1CC[C@H](C(=O)Nc2ncc(-c3ccccc3)s2)C1	µM	0.854

What does the data say about its TGI? Entry: CC(C)(C)O/N=C/c1cc(NC(=S)c2ccccc2)ccc1Cl 41

Cool, now COc1cc2c(cc1OC)C1=C(C=O)c3ccc(OC)c(OC)c3C(O)N1CC2 (stereo not given) 38.3

====

Test system: CCRF-CEM leukemia
Test Summary: NCI tumour cell line growth inhibition, 48 h
Measurement Name: TGI (µM)
Provide the reading as a plain figure in µM.

Given Smiles	Measurement Name	Result Value
Cc1ccc(S(=O)(=O)Nc2ccccc2C(C)(C)C)cc1	TGI	63.8
C/C(=N/NC(=S)Nc1ccc(C)cc1)c1ccccn1	TGI	4.64
COC(=O)[C@]12CC[C@@H](C)[C@H](C)[C@@H]1C1=CC[C@@H]3[C@@]4(C)C(C=O)=C[C@@](C)(COS(C)(=O)=O)C4=CC[C@@]3(C)[C@]1(C)CC2	TGI	1.47
COc1cccc(-c2cc(=O)c3cc(N4CCN(C)CC4)ccc3[nH]2)c1	TGI	5.89

Please find the next molecule below.
What does the data say about its TGI? Entry: C=C1C(=O)O[C@@H]2C[C@@]3(C)[C@H](O)CCC(=C)[C@@H]3C[C@H]12 14.1

====

System: OVCAR-5 ovarian
Test Summary: NCI tumour cell line growth inhibition, 48 h
This section presents molecules with their documented TGI values.

Answered cases to consult:
Molecule	TGI
COc1ccc(S(=O)(=O)NC(CCC(=O)NC(N)=O)C(=O)NC(N)=O)cc1 (stereo not given)	> 100 µM
COc1cc2c(cc1O)NC(=O)[C@@H]1C[C@@H](O)CN1C2=O	> 100 µM
Cc1cc(NC(=O)NC(=O)c2ccccc2NC(=O)CN(C)C)ccc1Oc1ncc(Br)cn1	> 100 µM
Cc1ccc(-n2c3nc(=O)n(C)c(=O)c-3nc3ccccc32)c(C)c1	32.7 µM

Please find the next molecule below.
What does the data say about its TGI? Entry: OCC1OC(OC2(CO)OC(CO)C(O)C2O)C(O)C(O)C1O (stereo not given) > 100 µM
